Reported IC50 values for the following molecules.
- systemName: human olfactory receptor OR7D4 (Homo sapiens)
- Construct: transfected with a plasmid containing CRE-luciferase and a plasmid containing OR7D4; expressed in transfected cells; host or cells: HEK293T stably expressing olfactory chaperone proteins of the RTP family
- experimentalProtocol: OR7D4 luciferase gene reporter assay (antagonism of agonist-induced activation)
- Format: cell-based
- assayContext: dose-response, luciferase assay; half decrease of the luciferase production obtained without antagonist; androstenone at 31.6 micromolar
- Procedure: Cells were maintained in minimal essential medium (EMEM, Lonza) containing 10% fetal bovine serum (M10). […] Briefly, cells were plated on poly-D-lysine-coated 96-well plates (BD Bioscience, Erembodegem-Dorp, Belgium) and transfected with a plasmid containing CRE-luciferase and a plasmid containing OR7D4. Sixteen hours after transfection, the culture medium was replaced by serum-free EMEM containing the tested ligands at a determined concentration. […]
The answer is to be given in µM; state only the numeric part.

Some molecules with recorded IC50:
CCCCCCC(/C=C/CO)=C\c1ccc(F)cc1 = 18
CCCCCCC(/C=C/C(=O)OCC)=C\c1ccc(F)cc1 = 14
CCCCCCC(=C\c1ccccc1)/C=C(\C)C(=O)NC = 2
CCCCCCC(=C\c1ccccc1)/C=C(\C)C(=O)O = 62

As a next step, examine the molecule that follows.
Problem: Endpoint output: IC50 of `CCCCCCC(/C=C(\C)COCC)=C\c1ccc(F)cc1` . Value?
Solution: 22

---

- systemName: human olfactory receptor OR7D4 (Homo sapiens, UniProt Q8NG98)
- Construct: transfected with a plasmid containing CRE-luciferase and a plasmid containing OR7D4; expressed in transfected cells; host or cells: HEK293T stably expressing olfactory chaperone proteins of the RTP family
- experimentalProtocol: OR7D4 luciferase gene reporter assay (antagonism of agonist-induced activation)
- Type: cell-based
- assayContext: dose-response, luciferase assay; half decrease of the luciferase production obtained without antagonist; androstenone at 31.6 micromolar
# IC50 annotations
Only the number, expressed in µM, is required.

Illustrative cases are given below, each with its answer.
CCCCCCC(=C\c1ccccc1)/C=C(\C)C(=O)OCC = 2
CCc1cccc(/C=C(C)/C=C/C(=O)N(C)C)c1 = 126
CCCCCCC(=C\c1ccccc1)/C=C(\C)C(C)=O = 1
CCCCCCC(=C\c1ccccc1)/C=C(\C)C(=O)N(C)C = 2

Problem: What does the record list as IC50 for `CCCCCCC(=C\c1ccc(C#N)cc1)/C=C(\C)C(=O)OCC` ?
Solution: 13

Problem: State the recorded IC50 for this entry: `CCCCCCC(/C=C/C(N)=O)=C\c1ccccc1`
Solution: 14

Problem: May I ask what IC50 has been recorded for `CCCCCC(/C=C/C(=O)OCC)=C\c1ccccc1` ?
Solution: 14

Problem: # lookup: IC50 of `CCCCCCC(=C\c1ccc(C#N)cc1)/C=C(\C)C(=O)O`
Solution: 45

---

- systemName: human olfactory receptor OR7D4 (Homo sapiens, UniProt Q8NG98)
- Construct: transfected with a plasmid containing CRE-luciferase and a plasmid containing OR7D4; expressed in transfected cells; host or cells: HEK293T stably expressing olfactory chaperone proteins of the RTP family
- Sequence (Q8NG98 1-312): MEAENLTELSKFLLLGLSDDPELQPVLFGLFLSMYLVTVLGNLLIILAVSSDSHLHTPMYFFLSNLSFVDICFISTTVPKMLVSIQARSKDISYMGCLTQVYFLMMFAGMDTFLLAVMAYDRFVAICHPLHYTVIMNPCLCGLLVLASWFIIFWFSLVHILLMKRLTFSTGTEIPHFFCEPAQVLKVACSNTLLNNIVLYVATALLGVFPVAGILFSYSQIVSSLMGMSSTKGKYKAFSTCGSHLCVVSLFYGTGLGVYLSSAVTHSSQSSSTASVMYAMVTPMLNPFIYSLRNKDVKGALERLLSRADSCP
- experimentalProtocol: OR7D4 luciferase gene reporter assay (antagonism of agonist-induced activation)
- Type: cell-based
- assayContext: dose-response, luciferase assay; half decrease of the luciferase production obtained without antagonist; androstenone at 31.6 micromolar
In this section, each of the compounds is paired with its reported IC50.

CCOC(=O)/C(C)=C/C(=C/c1ccccc1)C(C)CC(C)(C)C (stereo not drawn) [Compound 11] = 8 µM
CCOC(=O)/C(C)=C/C(=C/c1ccccc1)CC1CCCC1 [Compound 12] = 8 µM

Now for another entry.
Problem: # query: IC50 of entry CCCc1ccccc1/C=C/C=C/C(=O)OCC [Compound 3]
Solution: 50 µM

---

- systemName: human olfactory receptor OR7D4 (Homo sapiens, UniProt Q8NG98)
- Construct: transfected with a plasmid containing CRE-luciferase and a plasmid containing OR7D4; expressed in transfected cells; host or cells: HEK293T stably expressing olfactory chaperone proteins of the RTP family
- experimentalProtocol: OR7D4 luciferase gene reporter assay (antagonism of agonist-induced activation)
- Type: cell-based
- assayContext: dose-response, luciferase assay; half decrease of the luciferase production obtained without antagonist; androstenone at 31.6 micromolar
attributeMeasured: IC50 (µM)
Kindly provide the numeric value in µM only, without the unit symbol.

Reference set, count: 7
CCCc1ccccc1/C=C/C=C/CO = 126
CCCCCCC(/C=C(\C)COC)=C\c1ccccc1 = 25
CCCCCCC(/C=C/C(C)=O)=C\c1ccccc1 [Compound 30, (E)-5-((E)-benzylidene)undec-3-en-2-one] = 6
CCCC(/C=C/C(=O)OCC)=C\c1ccccc1 = 85
CCCCCCC(/C=C(\C)COCC)=C\c1ccccc1 = 126
CCCCCCC(/C=C/C#N)=C\c1ccccc1 = 8
CCCCCCC(/C=C/C(=O)OCC)=C\c1ccccc1 = 7

From here, focus on the item given below.
Problem: Recorded IC50 of `CCCCCCC(/C=C(\C)C#N)=C\c1ccccc1` , please.
Solution: 12

Source of measurements: patent US11382848B2
